Ref: paper PMC7587356

- system_name: SARS-CoV-2 3CLpro (Severe acute respiratory syndrome coronavirus 2)
- test_description: biochemical
- Type: biochemical
- Parameters: unit not given here
- condition_notes: sheet LOPAC_screen_w_protease; primary screen with protease, mean of two replicates
# Lookup of reported mean keyed by entry
outcome_measure: mean

- CCCN(CC1CC1)c1nc(C)nc(Nc2c(Cl)cc(Cl)cc2Cl)c1Cl [NBI 27914]: 2.264
- Br.Cc1o[nH]c(=O)c1CC(N)C(=O)O (racemic) [(±)-AMPA hydrobromide]: 2.246
- COc1cc2c(cc1C(F)(F)F)N(C(=O)Nc1cc(F)cc(-c3cccnc3)c1)CC2 [SB 228357]: 2.5367
- Cl.Clc1cc(I)cc(Cl)c1NC1=NCCN1 [p-Iodoclonidine hydrochloride]: 2.258
- N#CC(C#N)=C(N)/C(C#N)=C/c1ccc(O)cc1 [Tyrphostin AG 112]: 2.497
- O=c1[nH]c2cc(Cl)ccc2c(O)c1-c1cccc(Oc2ccccc2)c1 [L-701,324]: 2.464
- CC(N)c1cccc(Cl)c1Cl.Cl (racemic): 2.411
- Clc1cnc(Oc2ccc(Oc3ncc(Cl)cc3Cl)cc2)c(Cl)c1 [TCPOBOP]: 2.32
- COC(=O)N1CCN(C(=O)Cc2ccc(Cl)c(Cl)c2)C(CN2CCCC2)C1.O=C(O)/C=C/C(=O)O (centres unmarked) [GR-89696 fumarate]: 2.523
- Cc1ccccc1N1CCN(S(=O)(=O)CC23CCC(CC2NC(=O)C(N)CCS(C)(=O)=O)C3(C)C)CC1.Cl [L-368,899]: 2.3895
- CCCCN1CCC(COC(=O)c2cc(Cl)c(N)c3c2OCCO3)CC1.Cl [SB 204070 hydrochloride]: 2.545
- C[N+]1(C)CCc2cc3c(cc2[C@H]1[C@@H]1OC(=O)c2c1ccc1c2OCO1)OCO3.[Br-] [(-)-Bicuculline methbromide, 1(S), 9(R)]: 2.342
- CC(=N)NCCCC[C@H](N)C(=O)O.Cl [L-N6-(1-Iminoethyl)lysine hydrochloride]: 2.233
- Cc1nc2c(OCc3ccccc3)cccn2c1CC#N [SCH-28080]: 2.443
- COc1cccc(NC(=O)/C=C/c2ccc(Cl)cc2)c1 [SB-366791]: 2.336
- CCC1(c2ccc(N)cc2)CCC(=O)NC1=O (racemic) [(±)-p-Aminoglutethimide]: 2.443
- Cl.Nc1ccn([C@@H]2O[C@H](CO)[C@@H](O)[C@@H]2O)c(=O)n1: 2.239
- Cc1ccc(O)c(N=Nc2ccccc2)n1 [SIB 1757]: 2.268
- C[C@H](Cc1ccc(OCC(=O)[O-])cc1)NC[C@H](O)c1cccc(Cl)c1.[Na+] [BRL 37344 sodium]: 2.226
- CC1=C(/C=C/C(C)=C/C=C/C(C)=C/C(=O)Nc2ccc(O)cc2)C(C)(C)CCC1 [Retinoic acid p-hydroxyanilide]: 2.295
- N#CC(C#N)=Cc1ccc([N+](=O)[O-])c(O)c1 [Tyrphostin AG 126]: 2.288
- O=[N+]([O-])c1cc(O)c(O)c([N+](=O)[O-])c1 [3,5-Dinitrocatechol]: 2.373
- COc1ccc2c(c1)c(CC(=O)O)c(C)n2Cc1ccc(F)cc1: 2.348
- Nc1c2c(nc3ccccc13)CCCC2O.O=C(O)/C=C\C(=O)O (centres unmarked) [Hydroxytacrine maleate]: 2.348
- C[N+](C)(C)CCOC(=O)CBr.[Br-] [Bromoacetylcholine bromide]: 2.401
- COC[C@H]1OC(=O)c2coc3c2[C@@]1(C)C1=C(C3=O)[C@@H]2CCC(=O)[C@@]2(C)C[C@H]1OC(C)=O [Wortmannin from Penicillium funiculosum]: 2.471
- COc1ccc2c(c1)c(CC(=O)O)c(C)n2C(=O)c1ccccc1: 2.541
- COc1ccccc1NC(=O)Nc1nc(-c2cccnc2)nc2ccccc12 [VUF 5574]: 2.164
- C#CCn1c(=O)c2c(ncn2C)n(C)c1=O [3,7-Dimethyl-I-propargylxanthine]: 2.439
- CCCC(=O)NCCc1c2n(c3ccc(OC)cc13)CCCc1ccccc1-2 [K 185]: 2.196
- Cl.N=C(N)NN [Aminoguanidine hydrochloride]: 2.381
- CC(=O)[C@H]1CC[C@H]2[C@@H]3CC[C@H]4C[C@H](O)CC[C@]4(C)[C@H]3C(=O)C[C@]12C [5alpha-Pregnan-3alpha-ol-11,20-dione]: 2.341
- Cl.N[C@@H](CCl)C(=O)O [beta-Chloro-L-alanine hydrochloride]: 2.368
- N=C(N)NC(=O)c1nc(Cl)c(N2CCCCCC2)nc1N [5-(N,N-hexamethylene)amiloride]: 2.452
- C[N+]1(C)CCC(OC(=O)C(c2ccccc2)c2ccccc2)CC1.[I-] [4-DAMP methiodide]: 2.136
